Values compiled from ChEMBL document CHEMBL1201862.

System: HCT-15
# label = bin(measured GI50), where bins are range A: < 6 µM; range B: ≥ 6 µM and < 30 µM; range C: ≥ 30 µM

Solved entries (count: 3):
CCC(Nc1ncnc2nc[nH]c12)C(=O)O (centres undefined) : range C
CSCCCNC(=O)c1csc([C@@H](CSC)NC(=O)CCNC(=O)[C@@H](NC(=O)OCC(Br)(Br)Br)C(C)O)n1 (some centres undefined) : range C
COc1ccc(C2C(=O)c3ccc(OC)cc3OC2c2cccnc2)cc1 (centres undefined) : range C

Form field 'band' for C/C(=N\Nc1nc2ccccc2[nH]1)c1cccc[n+]1[O-]
range C

Which of the defined bands does the recorded GI50 of Cn1c(CCC2(C)Cc3ccccc3C(=O)O2)cc2ccccc2c1=O (centres undefined) sit within?
range C

Entry COc1c2cc([N+](=O)[O-])cc1CN(C(=O)C(F)(F)F)CCOCCN(C(=O)C(F)(F)F)C2 belongs to which category?
range C
